target: T1, LILRB3; experiment: flow cytometry, reporter cells
T1 construct: also called LILRB3 reporter cells; not shown: transmembrane/intracellular domains of PILRb, the display part of the chimeric reporter receptor
reportedEndpoint: binding result

B2-16 (antibody, V domains shown, also called B2-16_HC; B2-16_LC) VH: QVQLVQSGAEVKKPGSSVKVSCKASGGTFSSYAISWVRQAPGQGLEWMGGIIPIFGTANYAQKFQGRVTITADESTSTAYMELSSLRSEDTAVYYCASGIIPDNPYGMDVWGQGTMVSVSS VL: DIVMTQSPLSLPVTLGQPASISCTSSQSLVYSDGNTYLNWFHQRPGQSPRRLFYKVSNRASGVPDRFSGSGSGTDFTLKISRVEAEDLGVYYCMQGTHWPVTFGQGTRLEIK ... no binding
B2-7 (antibody, V domains shown, also called B2-7_HC; B2-7_LC) VH: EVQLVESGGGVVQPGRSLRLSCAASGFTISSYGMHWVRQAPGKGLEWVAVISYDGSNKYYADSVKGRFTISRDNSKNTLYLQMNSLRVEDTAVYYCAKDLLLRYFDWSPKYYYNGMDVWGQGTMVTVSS VL: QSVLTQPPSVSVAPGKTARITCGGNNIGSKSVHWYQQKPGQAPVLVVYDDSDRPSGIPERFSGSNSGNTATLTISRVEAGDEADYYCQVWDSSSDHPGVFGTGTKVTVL ... no binding
B2-17 (antibody, V domains shown, also called B2-17_HC; B2-17_LC) VH: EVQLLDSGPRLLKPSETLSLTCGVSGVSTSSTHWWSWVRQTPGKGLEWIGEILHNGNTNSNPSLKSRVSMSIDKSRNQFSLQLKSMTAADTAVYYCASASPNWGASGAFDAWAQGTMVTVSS VL: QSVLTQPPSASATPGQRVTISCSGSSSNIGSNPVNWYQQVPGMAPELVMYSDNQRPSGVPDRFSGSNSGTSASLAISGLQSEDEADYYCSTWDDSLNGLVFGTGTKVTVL ... no binding
B2-15 (antibody, V domains shown, also called B-15; B2-15_HC) VH: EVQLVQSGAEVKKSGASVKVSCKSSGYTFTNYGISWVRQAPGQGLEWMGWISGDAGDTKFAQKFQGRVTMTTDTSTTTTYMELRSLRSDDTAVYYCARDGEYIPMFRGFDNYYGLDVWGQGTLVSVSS VL: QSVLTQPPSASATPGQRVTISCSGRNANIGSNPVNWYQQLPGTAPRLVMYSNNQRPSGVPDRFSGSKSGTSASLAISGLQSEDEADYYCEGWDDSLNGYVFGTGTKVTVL ... no binding
